assayed.target: Anthranilate--CoA ligase (Pseudomonas aeruginosa (strain ATCC 15692 / DSM 22644 / CIP 104116 /JCM 14847 / LMG 12228 / 1C / PRS 101 / PAO1)) (UniProt Q9I4X3)
method.description: Inhibition of Pseudomonas aeruginosa PAO1 GFP-fused quorum sensing pqsA at 10 uM measured every 15 mins up to 12 hrs by GFP reporter gene assay relative to control
reported.metric: inhibition (%)

O=C(CCc1ccccc1)Nc1ccc(CC2=CC(=O)OC2=CBr)cc1 ... 20.6
COc1cc(CC(=O)Nc2ccc(CC3=CC(=O)OC3=CBr)cc2)cc(OC)c1OC ... 20.3
COc1cc(CC(=O)Nc2ccc(CC3=CC(=O)OC3=C(Br)Br)cc2)cc(OC)c1OC ... 19.5
O=C(Cc1c(Cl)cccc1Cl)Nc1ccc(CC2=CC(=O)OC2=CBr)cc1 ... 17.6
O=C(C=Cc1ccccc1)Nc1ccc(CC2=CC(=O)O/C2=C/Br)cc1 ... 23.1

---

method.description: Cytotoxicity against mouse RAW264.7 cells assessed as cell viability at 10 uM after 48 hrs by MTT assay relative to control
Assay type: cell-based
condition.summary: read-out: Activity
reported.metric: viability at 48 h, 10 µM (%)
Give the value, in units of %, as a plain number.

The compound identified as CN(CCOc1ccc(CC2SC(=O)NC2=O)cc1)c1ccccn1 (stereo not drawn) [ROSIGLITAZONE] registered its viability at 48 h, 10 µM at 99

The compound identified as O=C(C=Cc1ccccc1)Nc1ccc(CC2=CC(=O)O/C2=C/Br)cc1 registered its viability at 48 h, 10 µM at 104

The compound identified as O=C(Cc1ccc(F)cc1)Nc1ccc(CC2=CC(=O)OC2=CBr)cc1 registered its viability at 48 h, 10 µM at 97

---

assayed.target: Anthranilate--CoA ligase (Pseudomonas aeruginosa (strain ATCC 15692 / DSM 22644 / CIP 104116 /JCM 14847 / LMG 12228 / 1C / PRS 101 / PAO1)) (UniProt Q9I4X3)
Sequence (whole entry): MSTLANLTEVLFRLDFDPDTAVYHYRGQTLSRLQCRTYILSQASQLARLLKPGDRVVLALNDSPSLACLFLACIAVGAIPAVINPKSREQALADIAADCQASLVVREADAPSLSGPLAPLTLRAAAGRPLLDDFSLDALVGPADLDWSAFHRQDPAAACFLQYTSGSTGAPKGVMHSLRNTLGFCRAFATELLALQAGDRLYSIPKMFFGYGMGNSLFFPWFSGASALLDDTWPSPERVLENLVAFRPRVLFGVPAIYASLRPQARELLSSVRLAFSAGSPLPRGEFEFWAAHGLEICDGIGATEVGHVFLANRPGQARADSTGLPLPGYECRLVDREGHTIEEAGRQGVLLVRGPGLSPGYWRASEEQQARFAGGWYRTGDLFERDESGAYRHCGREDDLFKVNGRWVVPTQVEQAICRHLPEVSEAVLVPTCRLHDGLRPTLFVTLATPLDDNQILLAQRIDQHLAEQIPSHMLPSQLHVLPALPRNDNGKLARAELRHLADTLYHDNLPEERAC
method.description: Inhibition of Pseudomonas aeruginosa PAO1 GFP-fused quorum sensing pqsA at 10 uM measured every 15 mins up to 12 hrs by GFP reporter gene assay relative to control
reported.metric: inhibition (%)

Answered cases to consult:
O=C(/C=C/c1ccccc1)Nc1ccc(CC2=CC(=O)OC2=C(Br)Br)cc1 ... 16.2
O=C(Cc1ccc(Br)cc1)Nc1ccc(CC2=CC(=O)OC2=C(Br)Br)cc1 ... 27.9
Cc1ccc(CC(=O)Nc2ccc(CC3=CC(=O)OC3=C(Br)Br)cc2)cc1 ... 24.5
O=C(Cc1ccc(F)cc1)Nc1ccc(CC2=CC(=O)OC2=CBr)cc1 ... 50.3
CN(CCOc1ccc(CC2SC(=O)NC2=O)cc1)c1ccccn1 (stereo not drawn) ... 9.19

(I) Cc1ccc(CC(=O)Nc2ccc(CC3=CC(=O)OC3=CBr)cc2)cc1
(II) COc1ccc(CC(=O)Nc2ccc(CC3=CC(=O)OC3=C(Br)Br)cc2)cc1
Between the entries labelled I and II , which has a larger inhibition value on record? Answer = label. I
(I: 29.8%, II: 20.6%)

(A) O=C(CCc1ccccc1)Nc1ccc(CC2=CC(=O)OC2=C(Br)Br)cc1
(B) O=C(Cc1ccc(Br)cc1)Nc1ccc(CC2=CC(=O)OC2=CBr)cc1
Between the entries labelled A and B , which has a larger inhibition value on record? Answer = label. B
(B: 40.8%, A: 22.9%)

(A) COc1ccc(/C=C/C(=O)Nc2ccc(CC3=CC(=O)OC3=C(Br)Br)cc2)cc1
(B) O=C1C=C(Cc2ccc(NC(=O)c3ccco3)cc2)C(=C(Br)Br)O1
Field: lower inhibition | Options: A / B Answer = label. A
(A: 21.9%, B: 34.6%)
